System: HCT-116
Assay: Antiproliferative activity against human HCT-116 cells harboring BRCA2 mutant assessed as cell viability incubated for 48 hrs by MTT assay
Type: functional, cell-based
Conditions: HCT-116, 48 h
quantityMeasured: pIC50
Quick note: pIC50 means taking -log10 of the concentration in moles per liter.

Entry CN(C)C(=O)c1cc2cnc(Nc3ccc(C(=O)N4CCC(c5nc6c(C(N)=O)cccc6[nH]5)C4)cc3Cl)nc2n1C1CCCC1 (stereo unspecified) ; assay system HCT-116; pIC50 recorded at 5.69
